# System: T1, recombinant cynomolgus monkey (Macaca fascicularis) TfR1 (cynomolgus monkey (Macaca fascicularis), UniProt Q5RDH6 87-760 (Pongo abelii entry), limits assumed)
# T1 construct: Recombinant protein; also called cTfR1; cyTfR1
# T1 chain: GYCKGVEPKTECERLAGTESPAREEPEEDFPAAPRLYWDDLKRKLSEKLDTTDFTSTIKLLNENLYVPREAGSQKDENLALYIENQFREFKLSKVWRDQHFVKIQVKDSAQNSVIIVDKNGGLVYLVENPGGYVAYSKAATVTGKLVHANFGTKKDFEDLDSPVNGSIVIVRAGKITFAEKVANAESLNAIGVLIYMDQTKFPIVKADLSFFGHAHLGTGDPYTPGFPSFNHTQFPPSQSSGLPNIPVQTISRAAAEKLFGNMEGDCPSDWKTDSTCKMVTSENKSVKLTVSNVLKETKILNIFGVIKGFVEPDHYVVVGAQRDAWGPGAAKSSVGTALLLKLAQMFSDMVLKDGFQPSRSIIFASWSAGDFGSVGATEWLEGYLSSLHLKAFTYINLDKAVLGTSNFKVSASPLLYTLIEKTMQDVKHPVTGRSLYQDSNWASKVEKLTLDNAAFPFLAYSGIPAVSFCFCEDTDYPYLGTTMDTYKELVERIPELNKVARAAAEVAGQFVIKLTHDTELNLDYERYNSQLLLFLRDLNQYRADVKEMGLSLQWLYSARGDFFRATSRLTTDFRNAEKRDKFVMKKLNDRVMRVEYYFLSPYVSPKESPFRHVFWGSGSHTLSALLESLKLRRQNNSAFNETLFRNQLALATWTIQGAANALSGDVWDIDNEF
# Experiment Summary: Table 14, Fab-ASO300 conjugate; method not named

Binder: conjugate of humanized anti-TfR Fab 5H12 VH5 (C33Y)/Vκ4 with DMPK-targeting oligonucleotide ASO300 (Fab, V domains shown, oligonucleotide ASO300 conjugated to the Fab via linker; residue and chain not stated) VH: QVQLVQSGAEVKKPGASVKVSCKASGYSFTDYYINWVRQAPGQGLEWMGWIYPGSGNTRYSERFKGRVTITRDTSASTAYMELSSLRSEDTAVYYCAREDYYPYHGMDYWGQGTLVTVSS VL: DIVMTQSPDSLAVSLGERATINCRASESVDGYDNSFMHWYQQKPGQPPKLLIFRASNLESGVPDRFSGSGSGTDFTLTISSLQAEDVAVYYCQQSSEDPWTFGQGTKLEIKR
DMPK oligo conjugate binding (nM): 13.9
//
Binder: conjugate of humanized anti-TfR Fab 5H12 VH5 (C33D)/Vκ4 with DMPK-targeting oligonucleotide ASO300 (Fab, V domains shown, oligonucleotide ASO300 conjugated to the Fab via linker; residue and chain not stated, also called 5H12 (VH5-C33D/Vk4) conjugate) VH: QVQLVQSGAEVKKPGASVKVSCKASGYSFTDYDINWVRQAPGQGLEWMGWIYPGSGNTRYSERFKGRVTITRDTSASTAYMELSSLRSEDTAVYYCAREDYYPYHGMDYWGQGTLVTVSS VL: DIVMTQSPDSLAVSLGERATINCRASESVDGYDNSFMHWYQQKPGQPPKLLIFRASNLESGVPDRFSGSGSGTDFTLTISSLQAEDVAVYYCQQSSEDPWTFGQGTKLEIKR
DMPK oligo conjugate binding (nM): 10.2
//
Binder: conjugate of humanized anti-TfR Fab 3A4 VH3/Vκ4 with DMPK-targeting oligonucleotide ASO300 (Fab, V domains shown, oligonucleotide ASO300 conjugated to the Fab via linker; residue and chain not stated, also called 3A4 (VH3/Vk4) conjugate) VH: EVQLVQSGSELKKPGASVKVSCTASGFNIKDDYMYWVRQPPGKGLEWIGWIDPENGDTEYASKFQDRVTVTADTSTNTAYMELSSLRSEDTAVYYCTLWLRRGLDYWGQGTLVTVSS VL: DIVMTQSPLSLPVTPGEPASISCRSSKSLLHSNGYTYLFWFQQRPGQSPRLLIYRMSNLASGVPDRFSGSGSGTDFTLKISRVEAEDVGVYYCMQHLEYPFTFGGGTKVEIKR
DMPK oligo conjugate binding (nM): 7.59
//
Binder: conjugate of humanized anti-TfR Fab 3A4 VH3 (N54S)/Vκ4 with DMPK-targeting oligonucleotide ASO300 (Fab, V domains shown, oligonucleotide ASO300 conjugated to the Fab via linker; residue and chain not stated, also called 3A4 (VH3-N54S/Vk4) conjugate) VH: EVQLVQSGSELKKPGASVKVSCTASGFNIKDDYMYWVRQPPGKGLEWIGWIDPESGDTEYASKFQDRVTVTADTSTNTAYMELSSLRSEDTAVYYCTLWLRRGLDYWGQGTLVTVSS VL: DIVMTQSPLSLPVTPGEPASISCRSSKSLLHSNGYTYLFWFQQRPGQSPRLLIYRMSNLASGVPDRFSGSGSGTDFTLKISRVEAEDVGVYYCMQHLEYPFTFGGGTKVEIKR
DMPK oligo conjugate binding (nM): 4.1
